molecular target: T1, CD137-hisFc fusion protein (Sino Biological Cat 10041-H03H) (human, UniProt Q07011 24-186); assay: BLI Octet, Fab;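 note: fab fragments expressed in E. coli, binding to human CD137 measured on Octet RED96, kinetics fitted with a 1:1 Langmuir model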
T1 construct: Bought; also called recombinant human CD137 (fused with human Fc and His tag); not shown: His tag and human Fc
MEASUREMENT TYPE: pKd
Please keep in mind that pKd is minus log10 of the molar concentration; only the number is needed.

Examples with their reported pKd follow.
BINDER: Fab 5300 (Fab, V domains shown, Fab from E. coli; also called VH12/VL12) VH: EVQLVESGGGLVQPGGSLRLSCAASGYTFSNYWIHWVRQAPGKGLEWVSYISGDGDTTYYADSVKGRFTISRDNSKNTLYLQLNSLRAEDTAVYYCAREGSTTVAGDWFAYWGQGTLVTVSS VL: DIQLTQSPSSLSASVGDRVTITCRASQGIGSFLGWYQQKPGKAPKLLIYDASSLESGVPSRFSGSGSGTDFTLTISSLQPEDFATYYCQQYYSLVTFGQGTKVEIKR
pKd: 7.82
//
BINDER: Fab 5318 (Fab, V domains shown, Fab from E. coli; also called VH18/VL18) VH: EVQLVESGGGLVQPGGSLRLSCAASGFSLSTSGVAVGWIRQAPGKGLEWLALIDWDDDKYYSTSLKSRLTISRDNSKNTLYLQLNSLRAEDTAVYYCAREGSTAVAGDWFAYWGQGTLVTVSS VL: DIQLTQSPSSLSASVGDRVTITCQASQDIRTFLAWYQQKPGKAPKLLIYDASNRATGIPSRFSGSGSGTDFTLTISSLQPEDFATYYCQQGYSTWTFGQGTKVEIKR
pKd: 7.72
//
BINDER: Fab 4074 (Fab, V domains shown, Fab from E. coli) VH: EVQLVESGGGLVQPGGSLRLSCAASGFSLSTGGVGVSWIRQAPGKGLEWVSSISGSGGTTYYADSVKGRFTISRDNSKNTLYLQLNSLRAEDTAVYYCARDDLYSWYFDVWGQGTLVTVSS VL: DIQLTQSPSSLSASVGDRVTITCRASQGIGSSLAWYQQKPGKAPKLLIYAASSLQSGVPSRFSGSGSGTDFTLTISSLQPEDFATYYCQQGYYTWTFGQGTKVEIKR
pKd: 7.70

Req: Form field: reported pKd of Fab 5409 (Fab, V domains shown, Fab from E. coli; also called VH37/VL37) VH: EVQLVESGGGLVQPGGSLRLSCAASGYSISSGHHWAWIRQAPGKGLEWVSVISGSGSSTYYADSVKGRFTISRDNSKNTLYLQLNSLRAEDTAVYYCAREGSDTVLGDWFAYWGQGTLVTVSS VL: DIQLTQSPSSLSASVGDRVTITCRASQGISSYLAWYQQKPGKAPKLLIYDASNLETGVPSRFSGSGSGTDFTLTISSLQPEDFATYYCQQGYSTWTFGQGTKVEIKR
Resp: 7.77

The measurements presented in this section are drawn from patent US20190055314A1.
